Just for reference, patent US11492375B2 is where these values come from.

- Tested on: PD-1-Ig binding to PD-L1-TVMV-His (PD-L1-His) (Homo sapiens (Human), UniProt Q9NZQ7)
- Sequence (Q9NZQ7 other isoform, or with tags, fused parts or gaps): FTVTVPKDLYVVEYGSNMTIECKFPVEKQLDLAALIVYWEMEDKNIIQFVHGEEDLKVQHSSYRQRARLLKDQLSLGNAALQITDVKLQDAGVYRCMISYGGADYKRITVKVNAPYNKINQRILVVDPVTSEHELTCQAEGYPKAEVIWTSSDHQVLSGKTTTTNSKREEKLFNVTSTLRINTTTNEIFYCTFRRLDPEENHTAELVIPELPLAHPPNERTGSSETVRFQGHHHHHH
- Protocol: PD-1/PD-L1 Homogenous Time-Resolved Fluorescence (HTRF) binding assay
- Test conditions: PD-1-Ig/PD-L1-His binding; value given as range class; read-out: HTRF IC50 (μM) or Range
Property name: IC50

INSERT INTO results (smiles_repr, measurement) VALUES
  ('C[C@H]1C(=O)N[C@@H](CC(=O)O)C(=O)N2CCC[C@H]2C(=O)N[C@@H](CN)C(=O)N[C@@H](CCC(=O)O)C(=O)N2C[C@H](O)C[C@H]2C(=O)N[C@@H](Cc2c[nH]c3ccccc23)C(=O)N[C@@H](CO)C(=O)N[C@@H](Cc2cn(CC(=O)O)c3ccccc23)C(=O)N(C)[C@H]2CCCC/C=C\CCCC[C@@H](C(=O)N[C@@H](CCC(=O)O)C(=O)N[C@H](C(=O)NCC(N)=O)CSCC(=O)N[C@@H](Cc3ccc(O)cc3)C(=O)N1C)N(C)C2=O', '0.002 to 0.0099 µM'),
  ('CC(C)C[C@@H]1NC(=O)[C@H](Cc2cnc[nH]2)NC(=O)[C@@H]2CCCN2C(=O)[C@H](CC(N)=O)NC(=O)[C@H](C)N(C)C(=O)[C@H](Cc2ccccc2)NC(=O)CSC[C@@H](C(=O)NCC(N)=O)NC(=O)[C@H](CCCNC(=N)N)NC(=O)[C@@H]2CCCCC/C=C/CCCCC[C@@H](C(=O)N2C)N(C)C(=O)[C@H](Cc2c[nH]c3ccccc23)NC(=O)[C@H](CO)NC(=O)[C@H](Cc2c[nH]c3ccccc23)NC(=O)CN(C)C1=O', '0.01 to 0.099 µM'),
  ('CC(C)C[C@@H]1NC(=O)[C@H](Cc2cnc[nH]2)NC(=O)[C@@H]2CCCN2C(=O)[C@H](CC(N)=O)NC(=O)[C@@H]2COCCN2C(=O)[C@H](Cc2ccc(O)cc2)NC(=O)CSC[C@H](C(=O)NCC(N)=O)NC(=O)[C@@H](C)NC(=O)C2CCC/C=C\CCC[C@@H](C(=O)N2C)N(C)C(=O)[C@H](Cc2c[nH]c3ccccc23)NC(=O)[C@H](CO)NC(=O)[C@@H](Cc2c[nH]c3ccccc23)NC(=O)[C@@H]2C[C@@H](O)CN2C1=O', '0.1 to 2 µM');
